growth for assorted molecules
- System: OVCAR-5 ovarian
- Procedure Summary: NCI-60 one-dose screen, 48 h (100 = growth as untreated, 0 = no growth, -100 = all killed)
- Assay Context: 10 µM unless noted
This is part of a sample that, as a whole, favours compounds with a hit. Of some 83,000 tested, about 20% had one in any assay.
Numeric only. Scale: %

Molecule: Cc1nc2ccccc2c(/C=C/c2ccccc2)c1C(=O)/C=C/c1ccc(C(F)(F)F)cc1
growth [%]: -34.6

Molecule: O=[N+]([O-])c1ccccc1NCSc1ccc(Cl)cc1
growth [%]: 114

Molecule: CNc1nc2c(s1)C(c1cc(F)ccc1F)CC(=O)N2 (centres undefined)
growth [%]: 89.7

Molecule: COc1cc(C(=O)c2cc(C)c3[nH]c4ccc(O)cc4c3c2C)cc(OC)c1OC
growth [%]: 38.9

Molecule: Fc1cc(-c2nnc3sc(-c4ccc(Cl)cc4Cl)nn23)c(Cl)cc1Cl
growth [%]: 96.6

Quick check: growth of C=C1C(=O)O[C@H]2[C@H]1CC/C(COC(=O)CSCC(=O)OC/C1=C/CC[C@@]3(C)O[C@H]3[C@H]3OC(=O)C(=C)[C@@H]3CC1)=C\CC[C@@]1(C)O[C@@H]21 ? 87.3

Quick one: C=C1C(=O)O[C@H]2[C@H]1CC/C(COC(=O)NCCOCCOCC(=O)Nc1ccc(OC)c(C(N)=O)c1O)=C\CC[C@@]1(C)O[C@@H]21 90.9

Quick one: COc1ccc(C2CC(c3ccc(Nc4nc(Nc5ccc(F)cc5)nc(Nc5ccc(Cl)cc5)n4)cc3)=NN2C(C)=O)cc1 (centres undefined) 104

Quick one: Cc1c(C(=O)/C=C/Nc2c(Cl)cc(S(N)(=O)=O)cc2Cl)sc2nc3ccccc3n12 106

Quick one: CCc1ccc(Oc2c(-c3ccc(OCc4ccc(Cl)cc4)cc3O)n[nH]c2C(F)(F)F)cc1 85.9

Quick one: CCOC(=O)c1cn2ncnc(Oc3ccc(NC(=O)NCCN(C)C)c(Cl)c3)c2c1C 91.6

Quick one: COc1cc(C(=O)/C=C/c2sc(Cl)nc2Cl)cc(OC)c1OC 77.1

Quick one: COc1c(B(O)O)cc(C)cc1-c1nc2ccc3[nH]ncc3c2c2c1CCCC2 89.3

Quick one: Cc1nc(NC(=O)COc2ccc(/C=C3\Cc4ccc(Cl)cc4C3=O)cc2)sc1C 105

Quick one: CC(=O)N1CCN(c2ccc(OCC3CO[C@](Cn4ccnc4)(c4ccc(Cl)cc4Cl)O3)cc2)CC1 (some centres undefined) 91.3

Quick one: CCN(CC)c1ccc(C2=NN(C(C)=O)C(c3cc(OC)c(OC)c(OC)c3)C2)cc1 (centres undefined) 39

Quick one: COc1ccc(C(=S)N2CCN(c3cccc(C)c3)CC2)cc1OC 93.4

Quick one: CCCCOc1nc2ccc(OC)cc2cc1-c1cc(-c2ccc(Cl)cc2)nc(-c2ccc(Cl)cc2)c1 98.7

Quick one: CCOC(=O)c1nc(Nc2ccc(C(C)=O)cc2)sc1C 99.5

====

- Tested on: UO-31 renal
- Procedure Summary: NCI-60 one-dose screen, 48 h
- Assay Context: 10 µM unless noted
This is part of a sample that, as a whole, favours compounds with a hit. Of some 83,000 tested, about 20% had one in any assay. The source made the active and inactive calls. The calls were made as follows: active = growth percent below 10; inactive = the rest.
Pick one: active, inactive

Compound: CCCC1CCC(O)(C(C)(O)C(=O)NC2C(=O)N3NCCCC3C(=O)N(O)C(C)C(=O)N3NCCCC3C(=O)N3NCC(O)CC3C(=O)NC(C)C(=O)OC2C(C)C)OC1CC (stereo not given)
Label Class: active
--
Compound: Cn1cc(C(=O)c2nc(-c3cn(C)c4ccc(F)cc34)no2)c2cc(F)ccc21
Label Class: inactive
--
Compound: O=c1c2cc(F)ccc2sc2c(NCCO)nc3ccccc3c12
Label Class: inactive

Outcome logged for COc1cc(C(=O)/C=C/c2c(Cl)nc3sccn23)cc(OC)c1OC in this assay: inactive

Quick one: CCOC(=O)c1c2c(n(-c3ccc(C#N)cc3)c1-c1ccccc1)C=CCC2 inactive

====

growth for assorted molecules
- Test system: CCRF-CEM leukemia
- Procedure Summary: NCI-60 one-dose screen, 48 h (100 = growth as untreated, 0 = no growth, -100 = all killed)
- Assay Context: 10 µM unless noted
About 83,000 compounds went through this panel and 20% of them were active in at least one assay; those are over-represented in the sample as a whole.
Numeric only. Scale: %

Molecule: CN(C)c1ccc2nc3ccc(=[N+](C)C)c([N+](=O)[O-])c-3sc2c1
Metric Name: growth
Measure Unit: %
Quantitative Readout: 12.7
//
Molecule: NS(=O)(=O)c1ccc(-n2nc(C(=O)N/N=C\c3ccc(F)cc3)cc2-c2ccc(Br)cc2)cc1
Metric Name: growth
Measure Unit: %
Quantitative Readout: 74.8
//
Molecule: COc1ccn2c(C(C)=O)cc(C(=O)c3ccc4c(c3)Sc3ccccc3N4)c2c1
Metric Name: growth
Measure Unit: %
Quantitative Readout: 8.15
//
Molecule: O=C(Nc1ccc(Cl)cc1F)c1cc(Cl)ccc1O
Metric Name: growth
Measure Unit: %
Quantitative Readout: 15.8

Quick check: growth of O=c1ccc(N=Nc2ccc([N+](=O)[O-])cc2)ccc1O ? 34.5

Quick one: Cc1nc2cnc(N)c(C#Cc3cncc(C(=O)Nc4ccc(CN5CCN(C)CC5)c(C(F)(F)F)c4)c3)c2nc1C 13.7

Quick one: O=C(CCc1nnc(-c2c(Cl)cccc2Cl)o1)c1nc2ccccc2[nH]1 47.3

Quick one: Cc1ccc(C(=O)NN2C(=O)CSC2c2ccc(Cl)cc2)cn1 (stereo unspecified) 117

Quick one: COc1ccc(CNC(=O)[C@H](O)[C@@H](N)Cc2ccccc2)cc1 102

Quick one: c1ccc(-c2nc3nonc3nc2-c2ccccc2)cc1 80.7

Quick one: CC([C@H]1CCC2C3CCC4C[C@@H](NC=O)CC[C@]4(C)C3CC[C@@]21C)N(C)C (stereo partly specified) -21.6

Quick one: CC[C@H](C)C(=O)O[C@H]1CCC=C2C=C[C@H](C)[C@H](CC[C@@H]3CC=CC(=O)O3)[C@H]21 6.89

Quick one: COC1=C(C)C(=O)c2c(c(CCCl)c3n2CCC3OC(C)=O)C1=O (stereo unspecified) 50.2

Quick one: COc1ccc(C2=Nn3c(nnc3-c3cc(Cl)cc(Cl)c3Cl)SC2)cc1 0.0891

Quick one: Cc1cccc(NC2=C(Cl)C(=O)c3nc(C)ccc3C2=O)c1 3.19

Quick one: CCN1C(=O)N(CC)C2Nn3c(s/c(=C4\C(=O)N(CC(C)C)c5ccccc54)c3=O)=NC21 (stereo unspecified) 42.6

====

- Test system: HCT-15 colon
- Procedure Summary: NCI-60 one-dose screen, 48 h
- Assay Context: 10 µM unless noted
The panel holds about 83,000 compounds, 20% with a hit somewhere; the sample as a whole holds those more often. Activity calls are given as the source filed them. The calls were made as follows: active = growth percent below 10; inactive = the rest.
Pick one: active, inactive

Molecule: Fc1cc(-c2nnc3sc(-c4ccc(Cl)cc4Cl)nn23)c(Cl)cc1Cl
Label Class: inactive
--
Molecule: Cc1oc2nc[nH]c(=O)c2c1C(=O)/C=C/c1ccc(Br)cc1
Label Class: active
--
Molecule: CCOC(=O)C1=C(N)Oc2c(sc3c(CC)cccc23)C1c1ccc(F)cc1 (stereo not given)
Label Class: inactive
--
Molecule: CNc1nc2c(s1)C(c1cc(F)ccc1F)CC(=O)N2 (stereo not given)
Label Class: inactive

# ---- query molecule ----
Outcome logged for CCN1C(=O)N(CC)C2Nn3c(s/c(=C\c4ccc([N+](=O)[O-])cc4)c3=O)=NC21 (stereo not given) in this assay: inactive

====

- System: A498 renal
- Procedure Summary: NCI-60 one-dose screen, 48 h (100 = growth as untreated, 0 = no growth, -100 = all killed)
- Assay Context: 10 µM unless noted
This is part of a sample that, as a whole, favours compounds with a hit. Of some 83,000 tested, about 20% had one in any assay. Active and inactive are the calls of the source. How the source made its calls: active means growth percent below 10; inactive means the rest.
growth for assorted compounds

Example entries and their recorded answers appear below.
Compound: O=C(O)c1cn(C2CC2)c2cc(N3CCN(C(=O)Nc4nc(-c5ccccc5)cs4)CC3)c(F)cc2c1=O
Result: -0.916% (active)

Compound: Cc1ccc(C(=O)N/N=C/c2cccc(Oc3ccccc3)c2)cn1
Result: 57.6% (inactive)

Compound: Cc1ccc(-c2nc(N3CCN(C(=O)Nc4ccc(Cl)c(C(F)(F)F)c4)CC3)c3ccccc3n2)cc1
Result: 45.9% (inactive)

Compound: O=C1NC(=O)C(Cn2cnc3ccccc32)N1 (stereo unspecified)
Result: 76.6% (inactive)

Quick check: growth of COc1ccc(C(=O)C(C)C)c2ccccc12 ? 99% (inactive)

Quick one: CC(=O)N1CCN(c2ccc(OCC3CO[C@](Cn4ccnc4)(c4ccc(Cl)cc4Cl)O3)cc2)CC1 (stereo partly specified) 86.4% (inactive)

Quick one: Cc1c(C(=O)N[C@@H](Cc2ccccc2)C(=O)C(=O)NCc2ccc(F)cc2)[nH]c2ccccc2c1=O 75.8% (inactive)

Quick one: COc1ccc(/C=C/c2c(C(=O)/C=C/c3ccc(C(F)(F)F)cc3)c(C)nc3ccccc23)cc1 -66.3% (active)
